Listed here: items and their measured Kd.
# Target Or System: T1, ArsR2 (Paracoccus denitrificans, UniProt A1B7C2 1-120)
# T1 sequence: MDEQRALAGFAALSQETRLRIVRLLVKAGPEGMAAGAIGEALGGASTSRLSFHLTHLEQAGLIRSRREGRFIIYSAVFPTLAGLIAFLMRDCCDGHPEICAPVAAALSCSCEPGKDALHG
# Test Name: fluorescence anisotropy; Anisotropy: 10 mM MOPS, 0.1 M NaCl, 15% glycerol, pH 7.5 (Methods; Figure 9 legend says pH 7.0), 30 °C, 25 nM DNA; EMSA: 10 mM Tris-HCl, 50 mM NaCl, 0.5 mM EDTA, pH 8.0, room temperature, 10 µM DNA and 10 µM ArsR
# Measurement Setup: protein: recombinant; tags: N-terminal His6 (pET100/D-TOPO); chain copies: 2; label: 5'-FAM on strand 1; blunt
Only the number, expressed in µM, is required.

Binder	Kd [µM]
PDNA2 (dsDNA) DNA 1: ATCAACATATCTTGAGAGGTTGATTCG DNA 2: CGAATCAACCTCTCAAGATATGTTGAT	0.14

QUERY: # Kd lookup, item PDNA1 (dsDNA) DNA 1: CTCAACATATCTTGAGAGGTTGATTCG DNA 2: CGAATCAACCTCTCAAGATATGTTGAG
RESULT: 0.13
